Test system: HeLa
condition: bulk resorufin, single well, 28.5 h, 10 µM, Bulk resorufin fluorescence
assay-readout: % viability (%)
A number alone suffices; assume %.

{"compound": "CC(C)(C)c1cc(C(=O)NCCN2CCCC2)n(Cc2ccc(Cl)cc2Cl)n1", "assay-readout": "% viability", "recorded-number": 110}
{"compound": "O=C(CN1C(=O)[C@@H]2CCCN2C(=O)c2ccccc21)N1CCOCC1", "assay-readout": "% viability", "recorded-number": 103}
{"compound": "O=c1cc(CSc2ccccn2)[nH]c2[nH]n(-c3ccccc3)c(=O)c12", "assay-readout": "% viability", "recorded-number": 109}
{"compound": "O=C(O)c1cc(S(=O)(=O)NCc2ccco2)c(Cl)cc1N1CCCCC1", "assay-readout": "% viability", "recorded-number": 92.5}
{"compound": "O=C(Nc1cncc(OC2CCNCC2)n1)C1CCC1 [CBK026728T]", "assay-readout": "% viability", "recorded-number": 94}

Exercise: // query % viability value for entry O=C(O)c1ccc(CNCc2c(F)cccc2Cl)cc1 [CBK269496]
Solution: 82.3

Exercise: Name the reported % viability value associated with the compound COc1ccc(C(CC(=O)O)NC(=O)c2ccccc2)cc1 (stereo not drawn)
Solution: 93.9

Exercise: Which % viability is listed for O=C(NC[C@@H]1CCCN(C(=O)c2cscn2)C1)c1cccs1 ?
Solution: 93.5

Exercise: Reported % viability, compound CC(C)c1ccc(CN2CCC(Cc3ccccc3)CC2)cc1 : ____
Solution: 109

Exercise: Give its % viability value. Item: O=C(CNS(=O)(=O)c1ccc(Br)cc1)N1CCOCC1
Solution: 87

Exercise: Need % viability of Cc1ccc(Cn2cc(Br)c(NC(=O)C(=O)O)n2)cc1 , thanks.
Solution: 88.4

Exercise: Fill blank: measured % viability of the compound CC(=O)NCc1cccc(-c2cc(C(=O)Nc3ccc4c(c3)OCCO4)cnc2N2CCOCC2)c1 [CBK159355C] is ____.
Solution: 102

Exercise: # get_value(readout='% viability', item= CCOC(=O)c1[nH]c(C)c(CN2CC3CCCN3C[C@@H]2C)c1C (stereo partly drawn) )
Solution: 105

Exercise: So what does the record say about % viability for S=C(Nc1ccc(C2=NCCO2)cc1)Nc1ccc(Cl)c(Cl)c1 ?
Solution: 106

Exercise: % viability lookup needed for CCCNC(=O)[C@@H]1Cc2c([nH]c3ccccc23)[C@]2(CCN(CCOc3ccccc3)C2)N1 [CBK063172T] , thanks.
Solution: 86

Exercise: Request the reported % viability associated with O=C1[C@@H]2CCCN2C(=O)c2ccccc2N1Cc1ccccc1F
Solution: 106

Exercise: Requested read-out: % viability. Entry: COc1ccc(C2N(CC(N)=O)CCOC23CCN(C(=O)c2ccc4ccccc4c2)CC3)cc1 (stereo not drawn)
Solution: 101

Exercise: Reported % viability, compound Cc1c(S(=O)(=O)NCCN2CCNC2=O)cnn1-c1ccccc1 : ____
Solution: 99.3

Exercise: I am curious: what % viability value has been reported for CC1=CC(C)C(C(=O)O)C(C(=O)N2CCN(C)CC2)C1 (stereo not drawn) ?
Solution: 102

Exercise: // lookup % viability for COc1cccc(NC(=O)c2sc3ncn(C)c(=O)c3c2C)c1
Solution: 82.5

Exercise: Need % viability, item S=c1[nH]nc(-c2sc3ccccc3c2Cl)[nH]1
Solution: 90.2

Exercise: So what's the measured % viability for this one? Cc1cc(CN2CC3CCCN3C[C@H]2C)oc1C (stereo partly drawn)
Solution: 103

Exercise: Any idea what % viability was measured for O=C1CSC(c2ccc(Br)cc2)N1O (stereo not drawn) ?
Solution: 97.7

Exercise: Quick one: % viability for Cc1nn(C)c(N2CCNCC2)c1NC(=O)c1ccoc1 [CBK050302T] ?
Solution: 108

Exercise: For the compound O=C(O)c1ccc(CNCc2c(F)cccc2Cl)cc1 [CBK269496C] , what % viability is on record?
Solution: 111
